testProtocol: Solubility
Format: physicochemical
conditionInfo: water; qualitative
Where a name gives a salt, the structure may show the parent alone.
quantityKind: solubility in water

Below: 5 compounds and their reported solubility in water.
>>> testvalue("CC[C@@]12C=C(C(=O)OC)n3c4c(c5ccccc53)CCN(CCC1)[C@H]42 [Example 7.b, Apovincamine 3,5-dihydroxybenzoate]")
"insoluble"
>>> testvalue("CC[C@]12CCCN3CCc4c(n(c5ccccc45)[C@@](O)(C(=O)OC)C1)[C@@H]32 [Example 20.a, Vincamine theophylline-7-acetate]")
"insoluble"
>>> testvalue("CC[C@@]12C=C(C(=O)OC)n3c4c(c5ccccc53)CCN(CCC1)[C@H]42 [Example 25.b, Apovincamine (D,L)-mandelate]")
"insoluble"
>>> testvalue("CC[C@@]12C=C(C(=O)OC)n3c4c(c5ccccc53)CCN(CCC1)[C@H]42 [Example 26.b, Apovincamine indolyl-3-acetate]")
"insoluble"
>>> testvalue("CC[C@@]12C=C(C(=O)OC)n3c4c(c5ccccc53)CCN(CCC1)[C@H]42 [Example 15.b, Apovincamine nicotinate]")
"insoluble"

Request: What value of solubility in water has been recorded for this entry: CC[C@]12CCCN3CCc4c(n(c5ccccc45)[C@@](O)(C(=O)OC)C1)[C@@H]32 [Example 9.a]
Response: insoluble

Request: Moving on to the next compound: CC[C@@]12C=C(C(=O)OC)n3c4c(c5ccccc53)CCN(CCC1)[C@H]42 [Example 6.b, Apovincamine 2,5-dihydroxybenzoate]
Response: insoluble

Request: Similarly, CC[C@]12CCCN3CCc4c(n(c5ccccc45)[C@@](O)(C(=O)OC)C1)[C@@H]32 [Example 12.a, Vincamine furoate (furan-2-carboxylate)] ?
Response: insoluble

Request: And what about the compound CC[C@@]12C=C(C(=O)OC)n3c4c(c5ccccc53)CCN(CCC1)[C@H]42 [Example 4.b] ?
Response: soluble

Request: Here is the next compound: CC[C@]12CCCN3CCc4c(n(c5ccccc45)[C@@](O)(C(=O)OC)C1)[C@@H]32 [Example 4.a, Vincamine glucose-1-phosphate, acid salt]
Response: soluble

Request: Then this compound: CC[C@]12CCCN3CCc4c(n(c5ccccc45)[C@@](O)(C(=O)OC)C1)[C@@H]32 [Example 6.a, Vincamine 2,5-dihydroxybenzoate]
Response: insoluble

Request: How about CC[C@]12CCCN3CCc4c(n(c5ccccc45)[C@@](O)(C(=O)OC)C1)[C@@H]32 [Example 22.a, Vincamine caprate] ?
Response: insoluble

Request: What about CC[C@@]12C=C(C(=O)OC)n3c4c(c5ccccc53)CCN(CCC1)[C@H]42 [Example 3.b, Apovincamine glucose-1-phosphate] ?
Response: soluble

* * *

testProtocol: Solubility
Type: physicochemical
conditionInfo: water; qualitative
quantityKind: solubility in water

The examples below pair each entry with its known result.
>>> testvalue("CC[C@@]12C=C(C(=O)OC)n3c4c(c5ccccc53)CCN(CCC1)[C@H]42 [Example 13.b, Apovincamine D(+)-camphorsulfonate]")
"soluble"
>>> testvalue("CC[C@]12CCCN3CCc4c(n(c5ccccc45)[C@@](O)(C(=O)OC)C1)[C@@H]32 [Example 27.a, Vincamine hydroquinone]")
"insoluble"
>>> testvalue("CC[C@@]12C=C(C(=O)OC)n3c4c(c5ccccc53)CCN(CCC1)[C@H]42 [Example 22.b, Apovincamine caprate]")
"insoluble"
>>> testvalue("CC[C@]12CCCN3CCc4c(n(c5ccccc45)[C@@](O)(C(=O)OC)C1)[C@@H]32 [Example 25.a, Vincamine (D,L)-mandelate]")
"insoluble"
>>> testvalue("CC[C@]12CCCN3CCc4c(n(c5ccccc45)[C@@](O)(C(=O)OC)C1)[C@@H]32 [Example 13.a, Vincamine D(+)-camphorsulfonate]")
"soluble"

Request: Item CC[C@]12CCCN3CCc4c(n(c5ccccc45)[C@@](O)(C(=O)OC)C1)[C@@H]32 [Example 7.a, Vincamine 3,5-dihydroxybenzoate] has what recorded solubility in water?
Response: insoluble

Request: How about CC[C@]12CCCN3CCc4c(n(c5ccccc45)[C@@](O)(C(=O)OC)C1)[C@@H]32 [Example 5.a, Vincamine 2,6-dihydroxybenzoate] ?
Response: insoluble

Request: Next up: CC[C@@]12C=C(C(=O)OC)n3c4c(c5ccccc53)CCN(CCC1)[C@H]42 [Example 20.b, Apovincamine theophylline-7-acetate]
Response: soluble

* * *

Reported values of Max. conc. time for individual entries
testProtocol: Hematic levels at different times after oral administration (absorption)
Assay type: in vivo, Wistar rat
conditionInfo: 100 mg/kg expressed as vincamine/apovincamine, 5% carboxymethyl cellulose suspension, 100 mg/kg
Form entry: value (min) — number only.

Take a look at these entries with their results.
>>> testvalue("CC[C@]12CCCN3CCc4c(n(c5ccccc45)[C@@](O)(C(=O)OC)C1)[C@@H]32 [Example 15.a, nicotinate]")
60
>>> testvalue("CC[C@]12CCCN3CCc4c(n(c5ccccc45)[C@@](O)(C(=O)OC)C1)[C@@H]32 [Example 5.a, Vincamine 2,6-dihydroxybenzoate]")
120
>>> testvalue("CC[C@@]12C=C(C(=O)OC)n3c4c(c5ccccc53)CCN(CCC1)[C@H]42 [Example 4.b]")
240
>>> testvalue("CC[C@@]12C=C(C(=O)OC)n3c4c(c5ccccc53)CCN(CCC1)[C@H]42 [Example 28.b, Apovincamine salicylate]")
240
>>> testvalue("CC[C@]12CCCN3CCc4c(n(c5ccccc45)[C@@](O)(C(=O)OC)C1)[C@@H]32 [Example 29.a, Vincamine dihydroxyphenylalanine (DOPA)]")
20

Request: Which measured Max. conc. time value corresponds to CC[C@]12CCCN3CCc4c(n(c5ccccc45)[C@@](O)(C(=O)OC)C1)[C@@H]32 [Example 3.a, Vincamine glucose-1-phosphate] ?
Response: 240

Request: Follow-up item: CC[C@@]12C=C(C(=O)OC)n3c4c(c5ccccc53)CCN(CCC1)[C@H]42 [Example 12.b, Apovincamine furoate]
Response: 240

Request: Do the same for CC[C@@]12C=C(C(=O)OC)n3c4c(c5ccccc53)CCN(CCC1)[C@H]42 [Example 29.b, Apovincamine dihydroxyphenylalanine] please
Response: 120

* * *

testProtocol: LD50 / acute toxicity, intraperitoneal route
Format: in vivo
conditionInfo: i.p.
Where a name gives a salt, the structure may show the parent alone.
Listed here: items and their measured LD50.
Give the value in mg/kg but do not write mg/kg after it.

Example cases with answers are listed next.
>>> testvalue("CC[C@@]12C=C(C(=O)OC)n3c4c(c5ccccc53)CCN(CCC1)[C@H]42 [Example 6.b, Apovincamine 2,5-dihydroxybenzoate]")
750
>>> testvalue("CC[C@@]12C=C(C(=O)OC)n3c4c(c5ccccc53)CCN(CCC1)[C@H]42 [Example 2.b, Apovineamine 2,4-dihydroxy-benzoate]")
650
>>> testvalue("CC[C@@]12C=C(C(=O)OC)n3c4c(c5ccccc53)CCN(CCC1)[C@H]42 [Example 29.b, Apovincamine dihydroxyphenylalanine]")
900
>>> testvalue("CC[C@]12CCCN3CCc4c(n(c5ccccc45)[C@@](O)(C(=O)OC)C1)[C@@H]32 [Example 4.c, glucose-6-phosphate acid salt]")
800
>>> testvalue("CC[C@@]12C=C(C(=O)OC)n3c4c(c5ccccc53)CCN(CCC1)[C@H]42 [Example 21.b, Apovincamine caproate]")
1900

Request: What value of LD50 has been recorded for this entry: CC[C@@]12C=C(C(=O)OC)n3c4c(c5ccccc53)CCN(CCC1)[C@H]42 [Example 7.b, Apovincamine 3,5-dihydroxybenzoate]
Response: 750

Request: Repeat for the following compound: CC[C@@]12C=C(C(=O)OC)n3c4c(c5ccccc53)CCN(CCC1)[C@H]42 [Example 10.b, Apovincamine pivalate]
Response: 750

Request: Subsequent entry: CC[C@]12CCCN3CCc4c(n(c5ccccc45)[C@@](O)(C(=O)OC)C1)[C@@H]32 [Example 15.a, nicotinate]
Response: 900

Request: Param item: CC[C@@]12C=C(C(=O)OC)n3c4c(c5ccccc53)CCN(CCC1)[C@H]42 [Example 16.b, Apovincamine acetylsalicylate]
Response: 750

Request: Thanks! And CC[C@@]12C=C(C(=O)OC)n3c4c(c5ccccc53)CCN(CCC1)[C@H]42 [Example 22.b, Apovincamine caprate] ?
Response: 1900

Request: Further, for CC[C@]12CCCN3CCc4c(n(c5ccccc45)[C@@](O)(C(=O)OC)C1)[C@@H]32 [Example 19.a, Vincamine p-chlorophenoxyacetate] ?
Response: 750

Request: // same read-out, input: CC[C@]12CCCN3CCc4c(n(c5ccccc45)[C@@](O)(C(=O)OC)C1)[C@@H]32 [Example 16.a, Vincamine acetylsalicylate]
Response: 900

Request: Next up: CC[C@]12CCCN3CCc4c(n(c5ccccc45)[C@@](O)(C(=O)OC)C1)[C@@H]32 [Example 26.a]
Response: 1000

Request: Repeat for the following compound: CC[C@]12CCCN3CCc4c(n(c5ccccc45)[C@@](O)(C(=O)OC)C1)[C@@H]32 [Example 27.a, Vincamine hydroquinone]
Response: 500

Request: Could you do the same for CC[C@@]12C=C(C(=O)OC)n3c4c(c5ccccc53)CCN(CCC1)[C@H]42 [Example 4.b] , please?
Response: 600

Request: And then CC[C@@]12C=C(C(=O)OC)n3c4c(c5ccccc53)CCN(CCC1)[C@H]42 [Example 9.b, Apovincamine clofibrate] , what is it?
Response: 800

Request: Do the same for CC[C@@]12C=C(C(=O)OC)n3c4c(c5ccccc53)CCN(CCC1)[C@H]42 [Example 3.b, Apovincamine glucose-1-phosphate] please
Response: 850

Request: Please give the result for CC[C@]12CCCN3CCc4c(n(c5ccccc45)[C@@](O)(C(=O)OC)C1)[C@@H]32 [Example 12.a, Vincamine furoate (furan-2-carboxylate)] too.
Response: 800

Attribution: patent US4122179A
